- target system: Tyrosine-protein kinase JAK3 (Mus musculus, UniProt Q62137)
- Sequence (Q62137 whole entry): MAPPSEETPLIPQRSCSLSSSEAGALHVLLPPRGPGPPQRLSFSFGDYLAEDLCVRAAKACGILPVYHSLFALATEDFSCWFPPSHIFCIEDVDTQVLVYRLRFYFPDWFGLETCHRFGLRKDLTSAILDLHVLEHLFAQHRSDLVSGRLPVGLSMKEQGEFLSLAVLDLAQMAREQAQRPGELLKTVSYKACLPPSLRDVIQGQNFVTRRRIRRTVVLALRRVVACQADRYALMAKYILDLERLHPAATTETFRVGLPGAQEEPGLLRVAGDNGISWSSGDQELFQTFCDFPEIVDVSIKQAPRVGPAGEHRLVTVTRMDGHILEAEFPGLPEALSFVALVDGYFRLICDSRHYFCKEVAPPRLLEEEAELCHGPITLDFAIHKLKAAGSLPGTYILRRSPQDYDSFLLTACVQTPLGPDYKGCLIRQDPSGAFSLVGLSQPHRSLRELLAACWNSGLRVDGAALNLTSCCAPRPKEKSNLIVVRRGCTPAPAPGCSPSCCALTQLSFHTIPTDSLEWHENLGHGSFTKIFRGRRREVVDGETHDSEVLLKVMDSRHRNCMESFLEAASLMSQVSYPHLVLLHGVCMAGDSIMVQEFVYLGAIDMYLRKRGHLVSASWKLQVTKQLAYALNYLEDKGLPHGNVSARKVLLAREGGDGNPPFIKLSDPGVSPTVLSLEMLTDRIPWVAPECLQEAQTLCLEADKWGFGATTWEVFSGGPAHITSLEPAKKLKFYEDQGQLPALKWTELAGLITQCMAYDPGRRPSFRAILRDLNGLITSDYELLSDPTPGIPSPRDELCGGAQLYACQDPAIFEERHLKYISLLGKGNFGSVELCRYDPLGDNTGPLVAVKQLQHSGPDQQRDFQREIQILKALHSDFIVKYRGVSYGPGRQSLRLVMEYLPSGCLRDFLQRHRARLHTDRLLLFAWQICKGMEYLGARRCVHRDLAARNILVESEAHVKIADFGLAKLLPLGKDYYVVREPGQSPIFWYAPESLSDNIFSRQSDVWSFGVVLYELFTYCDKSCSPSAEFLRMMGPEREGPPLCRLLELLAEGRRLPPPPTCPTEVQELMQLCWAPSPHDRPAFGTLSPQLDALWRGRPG
reported endpoint: IC50 (nM)
Write it as a number; the unit nM goes unstated.

Ask: Which measured IC50 value corresponds to `CC(C)(O)C(=O)N1CCN(c2ccc(C(F)(F)F)c(C3=C(c4c[nH]c5ccccc45)C(=O)NC3=O)c2)CC1` ?
Reply: 1290

---

Entries with their measured pIC50, system Tyrosine-protein kinase JAK2 (Homo sapiens, UniProt O60674):
Would you please state pIC50, meaning minus log10 of the concentration in mol/L, as a bare number?

Past entries and their recorded results:
O=C1CCN(c2ncc(C(F)(F)F)c(C3=C(c4c[nH]c5ccccc45)C(=O)NC3=O)n2)CC1; 6.48
O=C1NC(=O)C(c2c[nH]c3ccccc23)=C1c1cc(N2CCNCC2)ccc1C(F)(F)F; 5.33

Field: next compound
Ask: Which measured pIC50 value corresponds to `O=CN1CCN(c2ccc(C(F)(F)F)c(C3=C(c4c[nH]c5ccccc45)C(=O)NC3=O)c2)CC1` ?
Reply: 5.84
